pIC50 values, listed per item
# assay_target: human TYRO3 (455-end) (Homo sapiens, UniProt Q06418)
# Construct: TYRO3 (455-end); purchased SignalChem, Canada
# Sequence (Q06418 455-890 limits assumed): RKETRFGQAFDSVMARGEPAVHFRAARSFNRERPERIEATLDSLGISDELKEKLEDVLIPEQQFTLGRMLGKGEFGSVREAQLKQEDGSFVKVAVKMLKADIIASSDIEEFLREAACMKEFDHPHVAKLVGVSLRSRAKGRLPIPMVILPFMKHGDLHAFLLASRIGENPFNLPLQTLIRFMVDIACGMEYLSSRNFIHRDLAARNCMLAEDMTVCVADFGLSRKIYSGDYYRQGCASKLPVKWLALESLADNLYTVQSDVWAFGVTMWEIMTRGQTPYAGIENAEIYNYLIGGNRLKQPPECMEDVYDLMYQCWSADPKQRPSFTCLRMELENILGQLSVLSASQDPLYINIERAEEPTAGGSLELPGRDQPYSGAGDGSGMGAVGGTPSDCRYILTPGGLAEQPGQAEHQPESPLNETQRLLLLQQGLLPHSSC
# test_method_notes: HTRF kinase activity biochemical assay, TYRO3
# experimental_setup: 10 μM ATP, 30 minutes pre-incubation; read-out: HTRF TYRO IC50
pIC50: −log10 of the molar value.

Answered cases to consult:
Cc1ncc(-c2cnc(N)c(C(=O)N[C@H]3CCC[C@@H]3OCc3ccc(-c4ccc5c(c4)CC[C@@H]5N4CCN(CCO)CC4)cc3)c2)s1 | 7.00 to 8.00
CC1(C)C[C@H](N2CCN(CCO)CC2)c2ccc(-c3ccc(CO[C@H]4CCC[C@@H]4NC(=O)c4cc(-c5cccnc5F)cnc4N)cc3)cc21 | 7.00 to 8.00
CN1C(=O)Cc2cc(-c3ccc(CO[C@H]4CCC[C@@H]4NC(=O)c4cc(-c5cnn(C)c5)cnc4N)cc3)ccc21 | < 6.00
COc1c(-c2cnn(C)c2)cnc(N)c1C(=O)N[C@H]1CCC[C@@H]1OCc1ccc(-c2ccc3c(c2)CC[C@@H]3N2CCN(C)CC2)cc1 | 6.00 to 7.00
Nc1ncc(-c2ccc(F)nc2)cc1C(=O)N[C@H]1CCC[C@@H]1OCc1ccc(-c2ccc3c(c2)CC[C@@H]3N2CCN3C[C@H](O)C[C@H]3C2)cc1 | 6.00 to 7.00

Note to self: pIC50 recorded for `Cn1cc(-c2cnc(N)c(C(=O)N[C@H]3CCC[C@@H]3OCc3ccc(-c4cnc5c(c4)CCCN5C4CCN(CCO)CC4)cc3)c2)cn1` was 7.00 to 8.00

Note to self: pIC50 recorded for `CN1CCC(N2CC(C)(C)c3cc(-c4ccc(CO[C@H]5CCC[C@@H]5NC(=O)c5cc(-c6cnn(C)c6)cnc5N)cc4)ccc32)CC1` was 7.00 to 8.00

Note to self: pIC50 recorded for `COc1ccnc(N)c1C(=O)N[C@H]1CCC[C@@H]1OCc1ccc(-c2ccc3c(c2)CC[C@@H]3N2CCN(CCO)CC2)cc1` was 6.00 to 7.00

Note to self: pIC50 recorded for `CN1C[C@H](NC(=O)c2cc(-c3ccc(F)nc3)cnc2N)[C@@H](OCc2ccc(-c3ccc4c(c3)C(C)(C)CN4C3CCN(CCO)CC3)cc2)C1` was 6.00 to 7.00

Note to self: pIC50 recorded for CN(CCC(O)CO)C1CCc2cc(-c3ccc(CO[C@H]4CCC[C@@H]4NC(=O)c4cc(-c5cccnc5F)cnc4N)cc3)ccc21 (stereo partly drawn) was < 6.00

Note to self: pIC50 recorded for `C=C(C)c1cnc(N)c(C(=O)N[C@H]2CCC[C@@H]2OCc2ccc(-c3ccc4c(c3)C(C)(C)CN4C3CCN(CCO)CC3)cc2)c1` was > 8.00

Note to self: pIC50 recorded for Nc1ncc(-c2ccc(F)nc2)cc1C(=O)N[C@H]1CCC[C@@H]1OCc1ccc(-c2ccc3c(c2)CCC3N2CCN(CC(O)CO)CC2)cc1 (stereo partly drawn) was 6.00 to 7.00

----------
IC50 values, listed per item
# assay_target: human MER (528-end) (Homo sapiens, UniProt Q12866)
# Construct: human MER (528-end); purchased Camnabio, Japan
# test_method_notes: HTRF kinase activity biochemical assay, MER
# experimental_setup: 10 μM ATP, 30 minutes pre-incubation; read-out: HTRF MERTK IC50

Answered cases to consult:
Cn1cc(-c2cnc(N)c(C(=O)N[C@H]3CCC[C@@H]3OCc3ccc(-c4ccc5c(c4)ncn5C4CCN(CCO)CC4)cc3)c2)cn1 | 100 to 1000 nM
Cn1cc(-c2cnc(N)c(C(=O)N[C@H]3CCC[C@@H]3OCc3ccc(-c4ccc5c(c4)C(C)(C)C[C@H]5N4CCN(CCO)CC4)cc3)c2)cn1 | 10 to 100 nM

Note to self: IC50 recorded for `COc1nc(-c2cnc(N)c(C(=O)N[C@H]3CCC[C@@H]3OCc3ccc(-c4ccc5c(c4)CC[C@@H]5N4CCN(CCO)CC4)cc3)c2)cs1` was < 10 nM

----------
# assay_target: human MER (528-end) (Homo sapiens)
# Construct: human MER (528-end); purchased Camnabio, Japan
# test_method_notes: HTRF kinase activity biochemical assay, MER
# experimental_setup: 10 μM ATP, 30 minutes pre-incubation; read-out: HTRF MERTK IC50
pIC50: −log10 of the molar value.
assay_readout: pIC50

Answered cases to consult:
Cn1cc(-c2cnc(N)c(C(=O)N[C@H]3CCC[C@@H]3OCc3ccc(-c4ccc5c(c4)OCCC5N4CCN(CCO)CC4)cc3)c2)cn1 (stereo partly drawn) [Example 121] | > 8.00
CN1CCN([C@H]2CCc3cc(-c4ccc(CO[C@H]5CCC[C@@H]5NC(=O)c5cc(-c6ccc(C#N)nc6)cnc5N)cc4)ccc32)CC1 [Example 154] | > 8.00
COc1ccnc(N)c1C(=O)N[C@H]1CCC[C@@H]1OCc1ccc(-c2ccc3c(c2)C(C)(C)CC3N2CCN(C)CC2)cc1 (stereo partly drawn) [Example 138] | > 8.00
Cn1cc(-c2cnc(N)c(C(=O)N[C@H]3CCC[C@@H]3OCc3ccc(-c4ccc5c(c4)C(C)(C)CN5C4CCN(CC(N)=O)CC4)cc3)c2)cn1 [Example 27] | > 8.00
Nc1ncc(-c2ccc(F)nc2)cc1C(=O)N[C@H]1CCC[C@@H]1OCc1ccc(-c2ccc3c(c2)CC(F)(F)C3N2CCN(CCO)CC2)cc1 (stereo partly drawn) [Example 86] | > 8.00

Please look at the following compound next.
Note to self: pIC50 recorded for Cn1cc(-c2cnc(N)c(C(=O)N[C@H]3COC[C@@H]3OCc3ccc(-c4ccc5c(ccn5C)c4)cc3)c2)cn1 [Example 16] was 7.00 to 8.00

----------
# assay_target: human TYRO3 (455-end) (Homo sapiens, UniProt Q06418)
# Construct: TYRO3 (455-end); purchased SignalChem, Canada
# test_method_notes: HTRF kinase activity biochemical assay, TYRO3
# experimental_setup: 10 μM ATP, 30 minutes pre-incubation; read-out: HTRF TYRO IC50
pIC50: −log10 of the molar value.
pIC50 values, listed per item

Note to self: pIC50 recorded for CN(C)CCn1ccc2cc(-c3ccc(CO[C@H]4CCC[C@@H]4NC(=O)c4cc(-c5cnn(C)c5)cnc4N)cc3)ccc21 [Example 70] was 6.00 to 7.00

Note to self: pIC50 recorded for Cn1cc(-c2cnc(N)c(C(=O)N[C@H]3COC[C@@H]3OCc3ccc(-c4ccc5c(c4)C(C)(C)CN5C4CCN(CCO)CC4)cc3)c2)cn1 [Example 32] was 7.00 to 8.00

Note to self: pIC50 recorded for CN1CCN([C@H]2CCc3cc(-c4ccc(CO[C@H]5CCC[C@@H]5NC(=O)c5cc(-c6ccc(C#N)nc6)cnc5N)cc4)ccc32)CC1 [Example 154] was 6.00 to 7.00

Note to self: pIC50 recorded for CN1CCN([C@H]2CCCc3cc(-c4ccc(CO[C@H]5CCC[C@@H]5NC(=O)c5cc(-c6cccnc6F)cnc5N)cc4)ccc32)CC1 [Example 163] was 7.00 to 8.00

Note to self: pIC50 recorded for Nc1ncc(-c2ccc(F)nc2)cc1C(=O)N[C@H]1COC[C@@H]1OCc1ccc(-c2ccc3c(ccn3C3CCN(CCO)CC3)c2)cc1 [Example 25] was < 6.00

Note to self: pIC50 recorded for Nc1ncc(C(F)(F)F)cc1C(=O)N[C@H]1CCC[C@@H]1OCc1ccc(-c2ccc3c(c2)CC[C@@H]3N2CCN(CCO)CC2)cc1 [Example 131] was 6.00 to 7.00

----------
# assay_target: human MER (528-end) (Homo sapiens, UniProt Q12866)
# Construct: human MER (528-end); purchased Camnabio, Japan
# Sequence (Q12866 528-999 limits assumed): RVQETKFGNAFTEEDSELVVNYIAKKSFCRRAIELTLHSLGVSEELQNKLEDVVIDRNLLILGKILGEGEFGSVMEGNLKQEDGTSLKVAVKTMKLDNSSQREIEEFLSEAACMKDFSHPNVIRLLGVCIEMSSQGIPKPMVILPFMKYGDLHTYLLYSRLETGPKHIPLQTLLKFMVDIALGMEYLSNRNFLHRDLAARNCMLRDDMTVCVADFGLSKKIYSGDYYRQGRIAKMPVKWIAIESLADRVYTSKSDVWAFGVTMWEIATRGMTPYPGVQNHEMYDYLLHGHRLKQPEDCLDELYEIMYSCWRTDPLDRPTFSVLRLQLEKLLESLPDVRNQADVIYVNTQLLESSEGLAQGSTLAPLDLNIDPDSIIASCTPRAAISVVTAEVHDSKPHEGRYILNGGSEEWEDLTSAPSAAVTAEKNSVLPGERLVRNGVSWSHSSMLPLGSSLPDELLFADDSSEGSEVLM
# test_method_notes: HTRF kinase activity biochemical assay, MER
# experimental_setup: 10 μM ATP, 30 minutes pre-incubation; read-out: HTRF MERTK IC50
pIC50: −log10 of the molar value.
pIC50 values, listed per item

Answered cases to consult:
Cn1cc(-c2cnc(N)c(C(=O)N[C@H]3CCC[C@@H]3OCc3ccc(-c4ccc5c(c4)C(C)(C)C[C@@H]5N4CCN(C[C@H](O)CO)CC4)cc3)c2)cn1 | > 8.00
Cn1cc(-c2cnc(N)c(C(=O)N[C@H]3COC[C@@H]3OCc3ccc(-c4ccc5c(ccn5C5CCN(CCO)CC5)c4)cc3)c2)cn1 | > 8.00
Nc1ncc(-c2ccns2)cc1C(=O)N[C@H]1CCC[C@@H]1OCc1ccc(-c2ccc3c(c2)CC[C@@H]3N2CCN(CCO)CC2)cc1 | > 8.00
CN1CCN(C2CC(C)(C)c3cc(-c4ccc(CO[C@H]5CCC[C@@H]5NC(=O)c5cc(-c6cnn(C)c6)cnc5N)cc4)ccc32)CC1 (stereo partly drawn) | > 8.00

Hey, human MER (528-end) (Homo sapiens, UniProt Q12866) data for `CN(C)CCn1ccc2cc(-c3ccc(CO[C@H]4CCC[C@@H]4NC(=O)c4cc(-c5cnn(C)c5)cnc4N)cc3)ccc21` : pIC50 came out at > 8.00

Hey, human MER (528-end) (Homo sapiens, UniProt Q12866) data for CN1CC(C(=O)NC2Cc3ccc(-c4ccc(CO[C@H]5CCC[C@@H]5NC(=O)c5cc(-c6cnn(C)c6)cnc5N)cc4)cc3C2)C1 (stereo partly drawn) : pIC50 came out at > 8.00

Hey, human MER (528-end) (Homo sapiens, UniProt Q12866) data for `Cc1cn(C)c2ccc(-c3ccc(CO[C@H]4CCC[C@@H]4NC(=O)c4cc(-c5cnn(C)c5)cnc4N)cc3)cc12` : pIC50 came out at 7.00 to 8.00

Hey, human MER (528-end) (Homo sapiens, UniProt Q12866) data for `CN(C)CC(=O)N1CCc2cc(-c3ccc(CO[C@H]4CCC[C@@H]4NC(=O)c4cc(-c5cnn(C)c5)cnc4N)cc3)ccc21` : pIC50 came out at 6.00 to 7.00

Hey, human MER (528-end) (Homo sapiens, UniProt Q12866) data for `CN1CCC(c2c[nH]c3cc(-c4ccc(CO[C@H]5CCC[C@@H]5NC(=O)c5cc(-c6cnn(C)c6)cnc5N)cc4)ccc23)CC1` : pIC50 came out at 7.00 to 8.00

Hey, human MER (528-end) (Homo sapiens, UniProt Q12866) data for `CN1CCN([C@H]2CCc3cc(-c4ccc(CO[C@H]5CCC[C@@H]5NC(=O)c5cc(-c6ccn(C)c(=O)c6)cnc5N)cc4)ccc32)CC1` : pIC50 came out at > 8.00

Hey, human MER (528-end) (Homo sapiens, UniProt Q12866) data for Cn1cc(-c2cnc(N)c(C(=O)N[C@H]3CCC[C@@H]3OCc3ccc(-c4ccc5c(c4)CCC5N4CCN(CC5COC(C)(C)O5)CC4)cc3)c2)cn1 (stereo partly drawn) : pIC50 came out at > 8.00

Hey, human MER (528-end) (Homo sapiens, UniProt Q12866) data for `Nc1ncc(-c2ccc(F)nc2)cc1C(=O)N[C@H]1COC[C@@H]1OCc1ccc(-c2ccc3c(ccn3C3CCN(CCO)CC3)c2)cc1` : pIC50 came out at > 8.00

Hey, human MER (528-end) (Homo sapiens, UniProt Q12866) data for `Cc1cc2cc(-c3ccc(CO[C@H]4CCC[C@@H]4NC(=O)c4cc(-c5cnn(C)c5)cnc4N)cc3)ccc2[nH]1` : pIC50 came out at 7.00 to 8.00

Hey, human MER (528-end) (Homo sapiens, UniProt Q12866) data for `CN1CCN([C@@H]2CC(C)(C)c3cc(-c4ccc(CO[C@H]5CCC[C@@H]5NC(=O)c5cc(-c6cnn(C)c6)cnc5N)cc4)ccc32)CC1` : pIC50 came out at 7.00 to 8.00

These entries and their values trace back to patent US20260146035A1.
